For each of the compounds below, state its TGI.
- Tested on: LOX IMVI melanoma
- assayDetails: NCI tumour cell line growth inhibition, 48 h

Some entries whose results are on file:
>>> recordedmeasurement("O=c1cnn(C2OC(CO)C(O)C(F)C2O)c(=O)[nH]1 (configuration not stated)")
"> 100 µM"
>>> recordedmeasurement("COc1ccccc1-c1cc2c3c(nc4ccccc42)C(=O)c2cccnc2-c3n1")
"4.89 µM"
>>> recordedmeasurement("O=S(=O)(Nc1ccc(-c2nc(-c3cccc(OCCN4CCOCC4)c3)c(-c3ccnc(Br)c3)[nH]2)cc1)c1ccccc1")
"3.42 µM"

Consider the following items and state reported TGI for each.
1. CCOC(=O)CC(C)C(C#N)(OP1(=O)OC(c2ccccc2)C(C)N1C)c1ccccc1 (configuration not stated)
2. C=C(NC(=O)C(=C)NC(=O)c1csc(C2=NC3c4csc(n4)C4NC(=O)c5csc(n5)C(C(C)(O)C(C)O)NC(=O)C5CSC(=N5)/C(=C/C)NC(=O)C(C(C)O)NC(=O)c5csc(n5)C3(CC2)NC(=O)C(C)NC(=O)C(=C)NC(=O)C(=C)NC(=O)C(C(C)C)NC2C=Cc3c(C(C)O)cc(nc3C2O)C(=O)OC4C)n1)C(N)=O (configuration not stated)
3. Cc1c(Cl)ccc2c1NC(=O)C2(O)CC(=O)c1ccc(Cl)cc1Cl (configuration not stated)
4. COc1cc2c(cc1OC)C13CCN4CC5=CCOC(CC(=O)O)C(C5CC41)C3N2 (configuration not stated)

> 100 µM
> 61.3 µM
> 50 µM
> 100 µM

----------
- Test system: OVCAR-4 ovarian
- assayDetails: NCI tumour cell line growth inhibition, 48 h
Provide the reported TGI of each item.

>>> recordedmeasurement("CCOc1ncn(-c2ccc(NC(=S)Nc3cccc(O)c3)cc2)n1")
"> 100 µM"
>>> recordedmeasurement("CC(=O)[CH-]C(=O)c1ccccc1.CC(=O)[CH-]C(=O)c1ccccc1.[Nd+3].[OH-].[OH3+]")
"> 100 µM"
>>> recordedmeasurement("CCOC(=O)c1ccc(NC2Oc3cc4c(cc3C(c3cc(OC)c(OC)c(OC)c3)C2C)OCO4)cc1 (centres undefined)")
"> 64.7 µM"
>>> recordedmeasurement("COc1cc2c(cc1OC)C13CCN4CC5=CCOC(CC(=O)O)C(C5CC41)C3N2 (centres undefined)")
"> 100 µM"
>>> recordedmeasurement("COc1ccc(-n2sc3ncc(-c4ccccc4)cc3c2=O)cc1")
"45.7 µM"
>>> recordedmeasurement("CCCC[C@@H]1NC(=O)[C@H](CCCCN)NC(=O)[C@H](CCCNC(=N)N)NC(=O)[C@H](CC(C)C)NC(=O)[C@@H](NC(=O)[C@H](Cc2cccc(Cl)c2)NC(=O)[C@@H]2CCCN2C(=O)[C@@H](NC(C)=O)C(C)C)CCSSC[C@@H](C(=O)N[C@@H](CCCCN)C(=O)N2CCC[C@H]2C(=O)N2CCC[C@H]2C(=O)N[C@@H](CCC(=O)O)C(N)=O)NC(=O)[C@H](Cc2ccccc2)NC(=O)[C@H](CO)NC(=O)[C@H](C)NC(=O)[C@@H]2CCCN2C1=O")
"> 50 µM"

Go through the list and state TGI for each entry.
1. CCOC(=O)NNC(=O)NCCNC(=O)NNC(=O)OCC
2. O=c1[nH]cnc2c1nnn2CCCn1nnc2c(=O)[nH]cnc21
3. CSc1nc2c(c(N(C)C)n1)C=Nn1c(nc3ccccc31)S2
4. COc1c(C2(c3ccc(F)cc3)SCCCS2)c(=O)c1=O
5. O=C1OCC(c2ccc(O)c(O)c2)=C1c1cc(O)c(O)c(O)c1
6. C=C(NC(=O)C(=C)NC(=O)c1csc(C2=NC3c4csc(n4)C4NC(=O)c5csc(n5)C(C(C)(O)C(C)O)NC(=O)C5CSC(=N5)/C(=C/C)NC(=O)C(C(C)O)NC(=O)c5csc(n5)C3(CC2)NC(=O)C(C)NC(=O)C(=C)NC(=O)C(=C)NC(=O)C(C(C)C)NC2C=Cc3c(C(C)O)cc(nc3C2O)C(=O)OC4C)n1)C(N)=O (centres undefined)
7. O=C(O)CSc1n[nH]c(/C=C/c2ccccc2)n1
8. CCOC(C)OCC#CCCBr (centres undefined)

1: > 100 µM; 2: > 100 µM; 3: > 100 µM; 4: > 100 µM; 5: 70.1 µM; 6: > 83.5 µM; 7: > 100 µM; 8: > 100 µM
